Molecular target: CDK6/CyclinD3 (Homo sapiens (Human), UniProt Q00534)
Sequence (Q00534 whole entry, one chain of several): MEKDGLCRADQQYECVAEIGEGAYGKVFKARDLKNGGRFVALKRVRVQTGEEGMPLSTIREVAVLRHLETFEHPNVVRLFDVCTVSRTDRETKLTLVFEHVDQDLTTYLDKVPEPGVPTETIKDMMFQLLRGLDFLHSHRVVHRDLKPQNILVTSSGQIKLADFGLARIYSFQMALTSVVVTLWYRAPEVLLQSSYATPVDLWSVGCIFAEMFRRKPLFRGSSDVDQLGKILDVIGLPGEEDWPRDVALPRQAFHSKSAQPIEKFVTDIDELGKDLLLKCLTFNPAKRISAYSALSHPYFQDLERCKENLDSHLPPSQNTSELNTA
Test: In vitro kinase activity inhibition assay of CDK6/CyclinD3 (LANCE method)
Conditions: recombinant CDK6/CyclinD3 4 nM, ATP 200 μM, 1 h room temperature
Counter-ions that a name gives are not always drawn.
Each entry below carries its recorded IC50.
State the result as a value with its unit after it.

Please review the following examples before continuing.
[[record]]
molecule = "CS(=O)(=O)c1cc2cnc(Nc3ccc(C4=CCNCC4)cn3)nc2n1C1CCCC1.Cl [Example 4, hydrochloride]"
study_system = "CDK6/CyclinD3 (Homo sapiens (Human), UniProt Q00534)"
val = "11.1 nM"

[[record]]
molecule = "CS(=O)(=O)c1cc2cnc(Nc3ccc(C4CCNCC4)cn3)nc2n1C1CCCC1 [Example 5, hydrochloride]"
study_system = "CDK6/CyclinD3 (Homo sapiens (Human), UniProt Q00534)"
val = "9.85 nM"

[[record]]
molecule = "CS(=O)(=O)c1cc2cnc(Nc3ccc(N4CCNCC4)cn3)nc2n1C1CCCC1 [Example 1, hydrochloride]"
study_system = "CDK6/CyclinD3 (Homo sapiens (Human), UniProt Q00534)"
val = "5.7 nM"

[[record]]
molecule = "CN(C)C1CCN(c2ccc(Nc3ncc4cc(S(C)(=O)=O)n(C5CCCC5)c4n3)nc2)CC1 [Example 3, hydrochloride]"
study_system = "CDK6/CyclinD3 (Homo sapiens (Human), UniProt Q00534)"
val = "18.7 nM"

[[record]]
molecule = "CCS(=O)(=O)c1cc2cnc(Nc3ccc(N4CCNCC4)cn3)nc2n1C1CCCC1 [Example 2, hydrochloride]"
study_system = "CDK6/CyclinD3 (Homo sapiens (Human), UniProt Q00534)"
val = "21 nM"


Problem: // lookup IC50 for CN(C)C(=O)c1cc2cnc(Nc3ccc(C4=CCNCC4)cn3)nc2n1C1CCCC1.Cl [Example 6, hydrochloride]
Solution: 30.6 nM

---

Target: CDK4/CyclinD3 (Homo sapiens (Human))
Sequence (P11802 whole entry): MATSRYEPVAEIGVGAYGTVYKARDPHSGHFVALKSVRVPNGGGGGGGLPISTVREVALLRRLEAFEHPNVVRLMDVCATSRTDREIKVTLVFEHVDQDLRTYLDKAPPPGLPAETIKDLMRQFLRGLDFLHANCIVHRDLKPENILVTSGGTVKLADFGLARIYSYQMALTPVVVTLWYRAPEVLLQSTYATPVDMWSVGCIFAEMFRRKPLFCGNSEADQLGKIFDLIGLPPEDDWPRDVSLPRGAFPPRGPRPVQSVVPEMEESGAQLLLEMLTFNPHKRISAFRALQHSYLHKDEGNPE
Sequence (P30281 whole entry partner): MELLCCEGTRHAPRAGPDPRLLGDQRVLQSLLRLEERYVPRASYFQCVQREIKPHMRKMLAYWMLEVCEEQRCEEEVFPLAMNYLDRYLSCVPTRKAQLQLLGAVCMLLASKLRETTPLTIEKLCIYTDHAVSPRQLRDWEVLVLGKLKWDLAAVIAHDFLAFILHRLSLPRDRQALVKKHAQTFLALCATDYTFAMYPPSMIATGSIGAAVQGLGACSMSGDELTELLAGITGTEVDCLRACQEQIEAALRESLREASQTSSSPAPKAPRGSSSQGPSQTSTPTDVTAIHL
Test: In vitro kinase activity inhibition assay of CDK4/CyclinD3 (LANCE method)
Conditions: recombinant CDK4/CyclinD3 2 nM, ATP 200 μM, 1 h room temperature
Description: A method for in vitro kinase activity inhibition assay of CDK4/CyclinD3 and CDK6/CyclinD3 is established as follows: LANCE method of PerkinElmer Inc. was used in the assay, and recombinant CDK4/CyclinD3 (Item No.: 04-105) and CDK6/CyclinD3 (Item No.: 04-107) kinases were purchased from Cama Biosciences, Inc. Substrate ULight-MBP (Item No.: TRF0109) and Eu-labeled anti-MBP antibody (Item No.: TRF0201) were purchased from PerkinElmer. […]
Counter-ions that a name gives are not always drawn.
result_type: pIC50
Please report pIC50 as the negative decimal logarithm of the molar concentration, giving only the number.

Example entries and their recorded answers appear below.
[[record]]
molecule = "CS(=O)(=O)c1cc2cnc(Nc3ccc(C4=CCNCC4)cn3)nc2n1C1CCCC1.Cl [Example 4, hydrochloride]"
val = 8.59

[[record]]
molecule = "CS(=O)(=O)c1cc2cnc(Nc3ccc(N4CCNCC4)cn3)nc2n1C1CCCC1 [Example 1, hydrochloride]"
val = 9.10

[[record]]
molecule = "CS(=O)(=O)c1cc2cnc(Nc3ccc(C4CCNCC4)cn3)nc2n1C1CCCC1 [Example 5, hydrochloride]"
val = 8.84

[[record]]
molecule = "CCS(=O)(=O)c1cc2cnc(Nc3ccc(N4CCNCC4)cn3)nc2n1C1CCCC1 [Example 2, hydrochloride]"
val = 8.67

[[record]]
molecule = "CN(C)C1CCN(c2ccc(Nc3ncc4cc(S(C)(=O)=O)n(C5CCCC5)c4n3)nc2)CC1 [Example 3, hydrochloride]"
val = 8.47


Now consider the entry below.
Problem: Could you tell me which pIC50 is on file for CN(C)C(=O)c1cc2cnc(Nc3ccc(C4=CCNCC4)cn3)nc2n1C1CCCC1.Cl [Example 6, hydrochloride] ?
Solution: 8.63
